Biological target: T1, his-tagged B7-H3 (UniProt Q5ZPR3-2 29-245, limits assumed)
T1 construct: also called CD276; not shown: His tag
T1 sequence (looked up): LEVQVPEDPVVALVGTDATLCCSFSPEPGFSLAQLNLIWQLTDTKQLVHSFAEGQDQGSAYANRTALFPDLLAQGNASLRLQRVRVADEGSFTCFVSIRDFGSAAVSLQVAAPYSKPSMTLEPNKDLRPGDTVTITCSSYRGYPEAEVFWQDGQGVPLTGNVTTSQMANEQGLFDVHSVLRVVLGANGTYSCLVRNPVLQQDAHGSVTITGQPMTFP
Assay: SPR, Carterra LSA; binder captured by anti-human Fc, his-tagged B7-H3 injected
Method: Binding affinities of anti-B7-H3 antibodies to B7-H3 were measured by Surface Plasmon Resonance (SPR) on a Carterra LSA instrument. Goat anti-human Fc antibody was amine coupled to a HC30M chip. ScFv-Fc supernatants were diluted 30-fold with HBSTE and were captured by the anti-human Fc coupled HC30M chip. A 1:2 dilution series of his-tagged B7-H3, starting at 400 nM, was injected onto the chip for binding. Data was analyzed using the Carterra TM Kinetics software.
Quantity name: Kd (nM)
Your answer is read as nM, so omit the unit and give the number.

[ask] Please look up its Kd: 40633p1.1.A6 scFv-Fc (scFv, V domains shown) VH: EVQLLESGGGLVQPGGSLRLSCAASGFSFSNYDMSWVRQAPGKGLEWVAGIRSGSRTYYADSVKGRFTISRDNSKNTLYLQMNSLRAEDTATYYCGRYFNMDVWGQGTTVTVSS VL: QSVLTQPPSASGTPGQRVTISCSGSTFNIGTNLVHWYQQLPGTAPKLLIYLTDRRPSGVPDRFSGSKSGTSASLAISGLQSEDEANYYCATWDDSLNSFLFGGGTKLTVL
[reply] 1

[ask] Quick check: Kd of 40633p1.1.A7 scFv-Fc (scFv, V domains shown, Tested as scFv-Fc supernatant) VH: EVQLLESGGGLVQPGGSLRLSCAASGFTVSYYGMSWVRQAPGKGLEWVSAIKQDGSEKYYADSVKGRFTISRDNSKNTLYLQMNSLRAEDTAVYYCARHWNDYSNAMNVWGQGTTVTVSS VL: QSVLTQPPSASGTPGQRVTISCSGSTSNIGRESVYWYQQLPGTAPKLLIYTIDQRPSGVPDRFSGSKSGTSASLAISGLQSEDEAVYYCASWDASLNGWVFGGGTKLTVL ?
[reply] 3.62
